Taken from the supplement of paper PMC10567573.

B1: TFE3 (parent)
chain: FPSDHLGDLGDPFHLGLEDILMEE

- Variants of: B1
- procedure_summary: protein stability index of a GFP-peptide fusion (GPS, HEK-293T) (PSI 1-6); higher = more stable;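 note: lentivirally expressed fusions sorted by FACS into six bins by GFP to DsRed ratio, PSI derived from sequencing read proportions per bin multiplied by bin number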
- experimental_setup: c terminus: a fixed tail appended
Lab note: anything with protein stability index at or over 3 counts as 1; the rest go in -1.

For orientation, consider the following solved cases.
FPSDHLVDLGDPFHLGLEDILMEE :: 1
FPSDHLGDLGDIFHLGLEDILMEE :: 1
FPSDHLGDLGDPFHLGLEDILEEE :: 1
FPSDHLGDLGDPFHLGLEDILMIE :: -1
FPSDWLGDLGDPFHLGLEDILMEE :: -1

protein stability index >= 3 for `FPSDHLGDLGDPFHLGLEDLLMEE` ? 1

Consider next the variant `FPSDHLGDLGDPFHLGLEDILMME` in the same way. -1

Request: `FPSDHLGDLGDPAHLGLEDILMEE` 1

How about this variant: `FPSDHLRDLGDPFHLGLEDILMEE` 1
